The measurements presented in this section are drawn from paper PMC9157583.

- Recorded conditions: human, in vivo, po, 200 mg, Cmax, CSF, single oral dose 200 mg, n = 9
Experimental endpoint: Cmax

[in] Return Cmax (reported value) for this molecule: COc1cc(Nc2c(C#N)cnc3cc(OCCCN4CCN(C)CC4)c(OC)cc23)c(Cl)cc1Cl [Bosutinib, Bosutinib monohydrate]
[out] 0.13 ng/mL

----------
- Recorded conditions: human, in vivo, po, 200 mg, Cmax, CSF, single oral dose 200 mg
Experimental endpoint: Cmax
Write down the value, and be sure its unit follows.

[in] Report Cmax, nothing else, for this molecule: COc1cc(Nc2c(C#N)cnc3cc(OCCCN4CCN(C)CC4)c(OC)cc23)c(Cl)cc1Cl [Bosutinib, Bosutinib monohydrate]
[out] 0.25 nM
